Here, compounds appear alongside IC50 reported for Inosine-5'-monophosphate dehydrogenase 2 (Homo sapiens, UniProt P12268) in the literature.

Prompt: Would you kindly share the measured IC50 for COc1cc2c(cc1-c1cnco1)C(=O)N(C)C1(CCN(C(=O)OC(C)(C)C)C1)N2 (stereo not drawn) ?
Completion: 0.104 µM

Prompt: Now the compound COc1cc2[nH]c(=S)n(CC(C)(C)C)c(=O)c2cc1-c1cnco1
Completion: 0.821 µM

Prompt: Try this compound too: CN(C)S(=O)(=O)c1cccc(C(C)(C)NC(=O)c2cc3[nH]c4ccccc4c(=O)c3cc2F)c1
Completion: 0.0079 µM

Prompt: Likewise for COc1cc(Nc2nc(NCCCC(=O)O)nc(-c3ccccc3)n2)ccc1-c1cnco1 ?
Completion: 0.078 µM

Prompt: Now the same for COc1cc2nc(-c3ccc4c(c3)C(N3CCCC3)CCO4)cc(O)c2cc1-c1cnco1 (stereo not drawn)
Completion: 0.033 µM

Prompt: Field entry: Cc1cccc(NC(=O)Nc2ccc3c(-c4cnco4)c[nH]c3c2)c1
Completion: 0.2 µM

Prompt: Field entry: COc1cc(NC(=O)C(=O)N(C)C(C)(C)C)ccc1-c1cnco1
Completion: > 10 µM

Prompt: What do we get for C=Cc1c(N)ccc2cnccc12 ?
Completion: 0.82 µM

Prompt: What do you have for Cc1ccc(-c2cnc(Nc3ccc4c(-c5cnco5)c[nH]c4c3)o2)cc1 ?
Completion: 0.205 µM

Prompt: Consider next the compound COc1cc2nc(-c3ccc4c(c3)C(N(C)C(C)=O)CC4)cc(O)c2cc1-c1cnco1 (stereo not drawn) in the same way.
Completion: 0.018 µM

Prompt: Next entry: COc1cc(Nc2nc(O)nc(-c3ccccc3)n2)ccc1-c1cnco1
Completion: 0.018 µM

Prompt: Could you do the same for COc1c(C)c2c(c(O)c1C/C=C(\C)CP(=O)(O)O)C(=O)OC2 , please?
Completion: 0.168 µM

Prompt: What do you get for COc1cc2[nH]c(=O)n(CCN3CCOCC3)c(=O)c2cc1-c1cnco1 ?
Completion: 0.297 µM

Prompt: // repeat for CNc1nc(Nc2ccc(-c3cnco3)c(OC)c2)nc(-c2ccco2)n1 and report
Completion: 0.057 µM

Prompt: For COc1cc2nc(-c3ccc4c(c3)C(N3CCOCC3)CC4)cc(O)c2cc1-c1cnco1 (stereo not drawn) then?
Completion: 0.02 µM

Prompt: Record: Nc1ccc2cnccc2c1N
Completion: > 5 µM

Prompt: Consider next the compound c1ccc2c(-c3ccoc3)c[nH]c2c1 in the same way.
Completion: 5.84 µM

Prompt: Follow-up item: O=C(Cn1c(-c2cscn2)nc2ccccc21)Nc1ccccc1Cl
Completion: > 5 µM

Prompt: Okay, and COc1cc2nc(-c3ccc4c(c3)CCC4N(C)C)cc(O)c2cc1-c1cnco1 (stereo not drawn) ?
Completion: 0.055 µM

Prompt: Subsequent entry: COc1cc2nc(-c3cccc(N4CCN(C)CC4)c3)cc(O)c2cc1-c1cnco1
Completion: 0.016 µM

Prompt: Consider next the compound COc1c(C)c2c(c(O)c1CC=C(C)C)C(=O)OC2 in the same way.
Completion: 0.254 µM

Prompt: Now try COc1cc(Nc2ncc(-c3ccccc3C(=O)N(C)C)o2)ccc1-c1cnco1 .
Completion: 0.141 µM

Prompt: Consider next the compound O=C(NCc1ccccc1)c1ccc2c(=O)c3ccccc3[nH]c2c1 in the same way.
Completion: 2.2 µM

Prompt: Ok, now CC(=O)OCC(=O)N(C)c1ccccc1-c1cnc(Nc2ccc3c(C#N)cn(C)c3c2)o1
Completion: 0.266 µM

Prompt: Note, next up: COc1c(C)c2c(c(O)c1C/C=C(\C)COCP(=O)(O)O)C(=O)OC2
Completion: 0.246 µM

Prompt: Lookup COc1cc2nc(-c3ccc4c(c3)C(=O)CCC4)cc(O)c2cc1-c1cnco1
Completion: < 0.01 µM

Prompt: Ok, now COc1cc2c(cc1-c1cnco1)C(=O)N(C)C1(CCN(C(=O)N(C)OC)C1)N2 (stereo not drawn)
Completion: 0.079 µM

Prompt: Check O=C(Cn1c(-c2nccs2)nc2ccccc21)Nc1ccc(Cl)cc1 too.
Completion: > 5 µM

Prompt: Next entry: O=C(Cn1c(-c2cscn2)nc2ccccc21)Nc1ccc(OC(F)(F)F)cc1
Completion: > 5 µM

Prompt: Another: CCOP(=O)(CCNC/C(C)=C/Cc1c(O)c2c(c(C)c1OC)COC2=O)OCC
Completion: > 1 µM

Prompt: Try the compound C=C(C)c1cccc(C(C)(C)NC(=O)Nc2cccc3ccccc23)c1
Completion: ≥ 5 µM

Prompt: Also N#Cc1ccc(NC(=O)Cn2c(-c3cscn3)nc3ccccc32)cc1 ?
Completion: > 5 µM

Prompt: // repeat for O=C(Cn1c(-c2cscn2)nc2ccccc21)Nc1ccc(Cl)c(Cl)c1 and report
Completion: > 5 µM

====

IC50 values for Inosine-5'-monophosphate dehydrogenase 2 (Homo sapiens) compiled from several publications are listed below.
The reply should be a number in µM, with the unit left off.

Prompt: Any idea what IC50 was measured for CNC(=O)c1ccccc1-c1cnc(Nc2ccc(-c3cnco3)c(OC)c2)o1 ?
Completion: 0.104

Prompt: Cool, now COC[C@@H]1CCCN1c1nc(Nc2ccc(-c3cnco3)c(OC)c2)nc(-c2ccccc2)n1
Completion: 0.29

Prompt: What would you report for COc1cc(Nc2ncc(-c3cccc(C)c3)o2)ccc1-c1cnco1 ?
Completion: 0.07

Prompt: Try this compound too: Cn1cc(C=O)c2ccccc21
Completion: 6.84

Prompt: Please answer likewise for O=C(Nc1ccccc1)Nc1ccc2cnccc2c1Br
Completion: 0.74

Prompt: How about COc1cc2[nH]c(=O)n(CCc3c[nH]cn3)c(=O)c2cc1-c1cnco1 ?
Completion: 0.047

Prompt: Again, but for O=C(COc1ccc(C(=O)/C=C/c2c(F)cccc2F)cc1)Nc1ccc2c(c1)COC2=O
Completion: 0.36

Prompt: Please answer likewise for COc1cc2c(cc1-c1cnco1)C(=O)N(C)C1(Cc3ccsc3C1)N2 (stereo unspecified)
Completion: 0.096

Prompt: Same thing, different compound: COc1c(C)c2c(c(O)c1C/C=C(\C)CN(CCP(=O)(O)O)S(N)(=O)=O)C(=O)OC2
Completion: 0.093

Prompt: Try the compound COc1cc2nc(-c3ccc4c(c3)C(N(C)C(=O)Cn3ccnc3)CC4)cc(O)c2cc1-c1cnco1 (stereo unspecified)
Completion: 0.068

Prompt: Request: NC(=O)c1csc([C@@H]2O[C@H](COP(=O)(O)C(F)(F)P(=O)(O)OC[C@@H]3O[C@H](n4cnc5c(N)ncnc54)[C@@H](O)[C@H]3O)[C@@H](O)[C@H]2O)n1
Completion: 0.3

Prompt: Param item: NC(=O)c1cccc([C@@H]2O[C@H](COP(=O)(O)CP(=O)(O)OC[C@@H]3O[C@H](n4cnc5c(N)ncnc54)[C@@H](O)[C@H]3O)[C@@H](O)[C@H]2O)c1
Completion: 0.8

Prompt: Ok, now Cn1cc(C#N)c2ccc(Nc3ncc(-c4ccc(CN)cc4)o3)cc21
Completion: 0.26

Prompt: Entry to check: C[C@H](NC(=O)c1ccc2c(=O)c3ccccc3[nH]c2c1)c1ccccc1
Completion: 0.431

Prompt: // same read-out, input: CC(C)(NC(=O)c1cc2[nH]c3ccccc3c(=O)c2cc1F)c1ccccn1
Completion: 0.029

Prompt: Please do the same for COc1cccc(-c2cnc(Nc3ccc(-c4cnco4)c(OC)c3)o2)c1 as well.
Completion: 0.097

Prompt: What do you have for CCOC(=O)c1ccccc1-c1cnc(Nc2ccc(-c3cnco3)c(OC)c2)o1 ?
Completion: 0.127

Prompt: Similarly, CN(C)CCOC(=O)NCc1cccc(-c2cnc(Nc3ccc4c(C#N)cn(C)c4c3)o2)c1 ?
Completion: 0.21

Prompt: Check COc1cc2c(cc1-c1cnco1)C(=O)N(C)C1(CCN(C(=O)N3CCCCC3)C1)N2 (stereo unspecified) too.
Completion: 0.068

Prompt: What about CC(C)(NC(=O)c1cc2[nH]c3ccccc3c(=O)c2cc1F)c1cnc2c(c1)OCCN2 ?
Completion: 0.017

Prompt: Now try COc1cc2nc(-c3ccc4c(c3)C(N(C)C(=O)CN3CCOCC3)CC4)cc(O)c2cc1-c1cnco1 (stereo unspecified) .
Completion: 0.018

Prompt: Another compound to check: O=P(O)(O)OC[C@@H]1OC(n2cnc3c(O)nc(/C=C/c4ccccc4)nc32)[C@@H](O)[C@H]1O (stereo partly specified)
Completion: 37

====

Compiled literature IC50, tested on Inosine-5'-monophosphate dehydrogenase 2 (Homo sapiens, UniProt P12268).

Prompt: What value of IC50 has been recorded for this entry: COc1cc2nc(-c3ccc4c(c3)C(N(C)C)CC4)cc(O)c2cc1-c1cnco1 (single isomer, unassigned; enantiomer B)
Completion: < 0.005 µM

Prompt: Query COc1cc(NC(=O)C(=O)N(C)c2ccccc2)ccc1-c1cnco1 next
Completion: > 10 µM

Prompt: Try O=C(Cn1c(-c2cscn2)nc2ccccc21)Nc1ccc(Cl)cc1 next.
Completion: > 5 µM

Prompt: Now consider O=C(Cn1c(-c2ccc[nH]2)nc2ccccc21)Nc1ccc(Cl)cc1 and answer again.
Completion: > 5 µM

Prompt: Subsequent entry: O=P(O)(O)OC[C@@H]1OC(n2cnc3c(O)nc(C(F)F)nc32)[C@@H](O)[C@H]1O (some centres undefined)
Completion: > 1000 µM

Prompt: Lookup CC(C)c1ccc(NC(=O)Cn2c(-c3cscn3)nc3ccccc32)cc1
Completion: > 5 µM

Prompt: What do we get for CC(C)(C)NC(=O)C(=O)Nc1ccc(-c2cnco2)cc1 ?
Completion: > 10 µM

Prompt: Next up: COc1cc2nc(-c3ccc(C)c(OCCN4CCOCC4)c3)cc(O)c2cc1-c1cnco1
Completion: < 0.005 µM

Prompt: What about this molecule? CC(C(=O)Nc1ccc(Cl)c(Cl)c1)n1c(-c2cscn2)nc2ccccc21 (centres undefined)
Completion: > 5 µM
